Cited source for all entries: patent US9260429B2

# Lookup of reported inhibition at 1 µM keyed by entry
Target: human recombinant adrenergic α2A receptor (Homo sapiens, UniProt P08913)
Construct: expressed in transfected cells; host or cells: insect Sf9 cells
Sequence (P08913 1-465): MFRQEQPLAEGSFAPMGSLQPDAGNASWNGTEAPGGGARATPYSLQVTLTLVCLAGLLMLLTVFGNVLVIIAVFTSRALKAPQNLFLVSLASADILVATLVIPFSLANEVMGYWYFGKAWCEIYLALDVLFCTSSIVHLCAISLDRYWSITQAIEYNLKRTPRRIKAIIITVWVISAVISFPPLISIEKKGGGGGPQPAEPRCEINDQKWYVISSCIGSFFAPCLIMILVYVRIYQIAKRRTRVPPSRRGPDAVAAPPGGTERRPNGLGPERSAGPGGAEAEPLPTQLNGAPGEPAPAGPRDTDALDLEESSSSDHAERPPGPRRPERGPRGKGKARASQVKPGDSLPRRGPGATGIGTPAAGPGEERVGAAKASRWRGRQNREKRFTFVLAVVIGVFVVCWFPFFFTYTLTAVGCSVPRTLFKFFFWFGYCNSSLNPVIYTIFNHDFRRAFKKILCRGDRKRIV
Assay: Adrenergic α2A radioligand binding ([3H]MK-912)
Conditions: 1 h; read-out: Percent Inhibition of ligand binding Adrenergic (1 μM ligand conc.) α2A
Metric Name: inhibition at 1 µM (%)

| Compound | Metric Name | Unit Tag | Recorded Measurement |
| --- | --- | --- | --- |
| COc1ccc(C(O)Cn2c3c(c4cc(C)ccc42)CCN(C)C3)cc1OC (stereo not shown) | inhibition at 1 µM | % | 55 |
| CC1c2c(c3cc(Cl)ccc3n2CCc2ccc(F)cc2)CCN1C (stereo not shown) | inhibition at 1 µM | % | 92 |
| Cc1ccc2c(c1)c1c(n2CC(O)c2ccccc2F)CN(C)CC1 (stereo not shown) | inhibition at 1 µM | % | 79 |
| CC(C)CCN(C)C(=O)Cn1c2c(c3cc(Cl)ccc31)CCN(C)C2 | inhibition at 1 µM | % | 19 |
| CN1CCc2c(n(CCCC(=O)N3CCCCC3)c3ccc(Cl)cc23)C1 | inhibition at 1 µM | % | 77 |
| CC1c2c(c3cc(Cl)ccc3n2C#Cc2ccc(Cl)cc2)CCN1C (stereo not shown) | inhibition at 1 µM | % | 13 |
| C#CCn1c2c(c3cc(Cl)ccc31)CCN(C)C2 | inhibition at 1 µM | % | 89 |
| Cc1ccc(CCCn2c3c(c4cc(Cl)ccc42)CCN(C)C3)cn1 | inhibition at 1 µM | % | 7 |
| CC1c2c(c3cc(Cl)ccc3n2C#Cc2ccc(F)cc2)CCN1C (stereo not shown) | inhibition at 1 µM | % | 81 |
| CCC1c2c(c3cc(C)ccc3n2C(=O)Cc2ccc(F)cc2)CCN1C (stereo not shown) | inhibition at 1 µM | % | 71 |
| C/C(=C\n1c2c(c3cc(Cl)ccc31)CCN(C)C2)c1ccc(F)cc1 | inhibition at 1 µM | % | 88 |
| CCC1c2c(c3cc(Cl)ccc3n2C#Cc2ccc(F)cc2)CCN1C (stereo not shown) | inhibition at 1 µM | % | 75 |
| CCC1c2c(c3cc(C)ccc3n2/C=C(\C)c2ccc(Cl)cc2)CCN1C (stereo not shown) | inhibition at 1 µM | % | 51 |
| Cc1ccc2c(c1)c1c(n2CCC2CCCCC2)CN(C)CC1 | inhibition at 1 µM | % | 81 |
| C/C(=C\n1c2c(c3cc(Cl)ccc31)CCN(C)C2C)c1ccc(Cl)cc1 (stereo not shown) | inhibition at 1 µM | % | 59 |
| Cc1ccc2c(c1)c1c(n2CCc2ccc(C(F)(F)F)nc2)CN(C)CC1 | inhibition at 1 µM | % | 74 |
| Cc1ccc(CCn2c3c(c4cc(Cl)ccc42)CCN(C)C3C)cn1 (stereo not shown) | inhibition at 1 µM | % | 82 |
| C/C(=C\n1c2c(c3cc(Cl)ccc31)CCN(C)C2C)c1ccccc1F (stereo not shown) | inhibition at 1 µM | % | 74 |
| Cc1ccc2c(c1)c1c(n2CCC(=O)N2CCCCC2)CN(C)CC1 | inhibition at 1 µM | % | 42 |

----------
biological target: human recombinant adrenergic α2B receptor (Homo sapiens); construct: expressed in transfected cells; host or cells: CHO-K1 cells; assay: Adrenergic α2B radioligand binding ([3H]Rauwolscine); conditions: 1 h; read-out: Percent Inhibition of ligand binding Adrenergic (1 μM ligand conc.) α2B
Sequence (P18089 whole entry): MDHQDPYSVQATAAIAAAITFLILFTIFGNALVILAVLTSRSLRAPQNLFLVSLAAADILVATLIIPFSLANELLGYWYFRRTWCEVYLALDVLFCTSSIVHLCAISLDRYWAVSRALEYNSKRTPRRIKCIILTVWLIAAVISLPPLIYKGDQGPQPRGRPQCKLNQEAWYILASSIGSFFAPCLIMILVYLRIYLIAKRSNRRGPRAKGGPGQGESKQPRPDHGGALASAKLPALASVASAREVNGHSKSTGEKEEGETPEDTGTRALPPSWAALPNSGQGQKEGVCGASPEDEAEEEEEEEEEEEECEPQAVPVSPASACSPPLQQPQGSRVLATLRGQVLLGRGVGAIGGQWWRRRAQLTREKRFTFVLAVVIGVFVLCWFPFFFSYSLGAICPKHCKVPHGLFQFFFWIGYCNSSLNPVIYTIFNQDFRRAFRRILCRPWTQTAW
# Lookup of reported inhibition at 1 µM keyed by entry

| Molecule | inhibition at 1 µM / % |
| --- | --- |
| Cc1ccc2c(c1)c1c(n2CC(O)c2ccccc2F)CN(C)CC1 (centres unmarked) | -5 |
| C/C(=C\n1c2c(c3cc(C)ccc31)CCN(C)C2)c1ccc(F)cc1 | 94 |
| CCC1c2c(c3cc(Cl)ccc3n2/C=C(\C)c2ccc(Cl)cc2)CCN1C (centres unmarked) | 53 |
| C/C(=C/n1c2c(c3cc(Cl)ccc31)CCN(C)C2C)c1ccccc1F (centres unmarked) | 94 |
| CN1CCc2c(n(CC(O)c3ccccc3F)c3ccc(Cl)cc23)C1 (centres unmarked) | 97 |

----------
molecular target: human recombinant histamine H2 receptor (Homo sapiens); construct: expressed in transfected cells; host or cells: CHO-K1 cells; experiment: Histamine H2 radioligand binding ([125I]Aminopotentidine); settings: 1 μM; inhibition of specific [125I]Aminopotentidine binding; read-out: Binding data (Percentage Inhibition) Histamine Binding (1 μM) H2
Sequence (P25021 whole entry): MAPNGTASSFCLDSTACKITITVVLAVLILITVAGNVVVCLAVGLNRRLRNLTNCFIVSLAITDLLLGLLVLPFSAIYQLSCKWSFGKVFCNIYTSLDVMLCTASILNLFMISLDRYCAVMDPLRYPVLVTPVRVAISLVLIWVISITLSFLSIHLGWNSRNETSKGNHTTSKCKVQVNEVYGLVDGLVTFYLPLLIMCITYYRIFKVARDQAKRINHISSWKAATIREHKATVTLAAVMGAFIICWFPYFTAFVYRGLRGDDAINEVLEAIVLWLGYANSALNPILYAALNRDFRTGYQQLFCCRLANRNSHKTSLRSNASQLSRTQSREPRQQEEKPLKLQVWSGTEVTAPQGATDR
# Lookup of reported inhibition at 1 µM keyed by entry

| Molecule | inhibition at 1 µM [%] |
| --- | --- |
| COC(=O)Cn1c2c(c3cc(C)ccc31)CCN(C)C2 [Compound 21] | 2 |
| CC1c2c(c3cc(Cl)ccc3n2C#Cc2ccc(F)cc2)CCN1C (centres unmarked) [Compound 128] | 53 |
| Cc1ccc2c(c1)c1c(n2C(=O)Cc2ccc(Cl)cc2)CN(C)CC1 [Compound 173] | 49 |
| CCC1c2c(c3cc(Cl)ccc3n2CCc2ccc(F)cc2)CCN1C (centres unmarked) [Compound 78] | 33 |
| COc1ccc(/C(C)=C/n2c3c(c4cc(Cl)ccc42)CCN(C)C3)cc1F [Compound 122] | 56 |

----------
Target: human recombinant serotonin (5-Hydroxytryptamine) 5-HT2C receptor (Homo sapiens, UniProt P28335)
Construct: expressed in transfected cells; host or cells: CHO-K1 cells
Sequence (P28335 33-458): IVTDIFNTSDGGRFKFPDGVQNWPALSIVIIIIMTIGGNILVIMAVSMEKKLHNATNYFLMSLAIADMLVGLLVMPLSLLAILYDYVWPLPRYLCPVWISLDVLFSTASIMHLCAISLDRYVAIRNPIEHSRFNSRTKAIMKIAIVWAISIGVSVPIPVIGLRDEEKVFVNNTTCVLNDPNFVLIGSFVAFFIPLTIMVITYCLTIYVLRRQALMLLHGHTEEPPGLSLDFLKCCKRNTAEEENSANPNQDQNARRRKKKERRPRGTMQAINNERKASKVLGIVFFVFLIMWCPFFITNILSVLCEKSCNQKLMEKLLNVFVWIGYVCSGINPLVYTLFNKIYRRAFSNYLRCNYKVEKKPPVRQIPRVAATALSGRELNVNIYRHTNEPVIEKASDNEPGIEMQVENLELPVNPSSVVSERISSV
Assay: Serotonin 5-HT2C radioligand binding ([3H]Mesulergine)
Settings: compound concentration 1 μM; read-out: Percentage inhibition of ligand binding to 5-HT2C receptor
# Lookup of reported inhibition at 1 µM keyed by entry

| Molecule | inhibition at 1 µM, % |
| --- | --- |
| C/C(=C\n1c2c(c3cc(Cl)ccc31)CCN(C)C2)c1ccc(F)cc1 [Compound 90] | 99 |
| C/C(=C\n1c2c(c3cc(C)ccc31)CCN(C)C2)c1ccc(F)cc1 [Compound 91] | 104 |
| C/C(=C\n1c2c(c3cc(C)ccc31)CCN(C)C2C)c1ccccc1F (stereo not shown) [Compound 166] | 96 |
| Cc1ccc2c(c1)c1c(n2/C=C/c2ccccc2)CN(C)CC1 [Compound 92] | 96 |

----------
target: human recombinant dopamine D2L receptor (Homo sapiens); construct: expressed in transfected cells; host or cells: CHO cells; assay: Dopamine D2L radioligand binding ([3H]Spiperone); settings: compound concentration 3 μM; read-out: Percentage inhibition of ligand binding to D2L receptor
Sequence (P14416 whole entry): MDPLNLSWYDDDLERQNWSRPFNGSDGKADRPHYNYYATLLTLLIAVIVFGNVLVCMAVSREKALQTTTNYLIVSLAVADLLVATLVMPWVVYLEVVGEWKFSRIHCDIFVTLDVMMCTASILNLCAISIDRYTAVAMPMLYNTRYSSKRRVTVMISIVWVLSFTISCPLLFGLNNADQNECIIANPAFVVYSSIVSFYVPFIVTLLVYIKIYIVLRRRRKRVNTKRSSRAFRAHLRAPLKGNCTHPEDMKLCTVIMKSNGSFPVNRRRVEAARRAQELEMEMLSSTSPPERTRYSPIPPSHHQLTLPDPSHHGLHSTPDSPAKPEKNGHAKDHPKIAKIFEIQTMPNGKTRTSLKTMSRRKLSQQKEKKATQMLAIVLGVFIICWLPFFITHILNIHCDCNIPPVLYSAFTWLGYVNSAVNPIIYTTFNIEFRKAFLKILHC

| Molecule | Measurement Target | inhibition at 3 µM, % |
| --- | --- | --- |
| Cc1ccc2c(c1)c1c(n2/C=C/c2ccccc2)CN(C)CC1 | human recombinant dopamine D2L receptor (Homo sapiens) | 72 |
| C/C(=C\n1c2c(c3cc(C)ccc31)CCN(C)C2)c1ccc(F)cc1 | human recombinant dopamine D2L receptor (Homo sapiens) | 64 |
| C/C(=C\n1c2c(c3cc(Cl)ccc31)CCN(C)C2)c1ccc(F)cc1 | human recombinant dopamine D2L receptor (Homo sapiens) | 70 |
| C/C(=C\n1c2c(c3cc(C)ccc31)CCN(C)C2C)c1ccccc1F (stereo not shown) | human recombinant dopamine D2L receptor (Homo sapiens) | 12 |
